Tested on: Staphylococcus aureus
Assay: Antibacterial activity against methicillin-resistant Staphylococcus aureus ATCC43300 by broth microdilution method
Assay type: functional
Response field label: string, one of Fulfilled (MIC strictly below 60 µg/mL) or Not fulfilled.

I wonder whether CCc1ccc(-c2cn(CC(=O)NNC(=O)O[C@H]3[C@H](C)[C@@H](O[C@@H]4O[C@H](C)C[C@H](N(C)C)[C@H]4O)[C@](C)(O)C[C@@H](C)CN(C)[C@H](C)[C@H]4OC(=O)O[C@]4(C)[C@@H](CC)OC(=O)[C@@H]3C)nn2)cc1 has MIC below 60 µg/mL. Can you tell?
Not fulfilled

I wonder whether CCCCCc1ccc(-c2cn(CC(=O)NNC(=O)O[C@H]3[C@H](C)[C@@H](O[C@@H]4O[C@H](C)C[C@H](N(C)C)[C@H]4O)[C@](C)(O)C[C@@H](C)CN(C)[C@H](C)[C@H]4OC(=O)O[C@]4(C)[C@@H](CC)OC(=O)[C@@H]3C)nn2)cc1 has MIC below 60 µg/mL. Can you tell?
Fulfilled

----------
Property: MIC; scope: individual compounds
Tested on: Klebsiella pneumoniae
Experiment: Antibacterial activity against Klebsiella pneumoniae ATCC10031 by broth microdilution method
Assay type: functional
Provide only the numeric value, understood in µg/mL.

chemical-smiles	study-target	MIC, µg/mL
CC[C@H]1OC(=O)[C@H](C)[C@@H](OC(=O)NNC(=O)Cn2cc(-c3ccc(-c4ccccc4)cc3)nn2)[C@H](C)[C@@H](O[C@@H]2O[C@H](C)C[C@H](N(C)C)[C@H]2O)[C@](C)(O)C[C@@H](C)CN(C)[C@H](C)[C@H]2OC(=O)O[C@@]21C	Klebsiella pneumoniae	32

// moving on: another record for MIC
// MIC lookup, key: CC[C@H]1OC(=O)[C@H](C)[C@@H](OC(=O)NNC(=O)Cn2cc(-c3cccc(F)c3)nn2)[C@H](C)[C@@H](O[C@@H]2O[C@H](C)C[C@H](N(C)C)[C@H]2O)[C@](C)(O)C[C@@H](C)CN(C)[C@H](C)[C@H]2OC(=O)O[C@@]21C
64

----------
Property: MIC; scope: individual molecules
Test system: Staphylococcus aureus
Experiment: Antibacterial activity against penicillin-resistant Staphylococcus aureus by broth microdilution method
Format: functional

Example molecules with recorded MIC:
chemical-smiles	result
CCCCCc1ccc(-c2cn(CC(=O)NNC(=O)O[C@H]3[C@H](C)[C@@H](O[C@@H]4O[C@H](C)C[C@H](N(C)C)[C@H]4O)[C@](C)(O)C[C@@H](C)CN(C)[C@H](C)[C@H]4OC(=O)O[C@]4(C)[C@@H](CC)OC(=O)[C@@H]3C)nn2)cc1	16 µg/mL
CC[C@H]1OC(=O)[C@H](C)[C@@H](OC(=O)NNC(=O)Cn2cc(-c3ccc(C)cc3)nn2)[C@H](C)[C@@H](O[C@@H]2O[C@H](C)C[C@H](N(C)C)[C@H]2O)[C@](C)(O)C[C@@H](C)CN(C)[C@H](C)[C@H]2OC(=O)O[C@@]21C	256 µg/mL
CC[C@H]1OC(=O)[C@H](C)[C@@H](OC(=O)NNC(=O)Cn2cc(-c3ccc(OC)cc3)nn2)[C@H](C)[C@@H](O[C@@H]2O[C@H](C)C[C@H](N(C)C)[C@H]2O)[C@](C)(O)C[C@@H](C)CN(C)[C@H](C)[C@H]2OC(=O)O[C@@]21C	256 µg/mL

// MIC lookup, key: CC[C@H]1OC(=O)[C@H](C)[C@@H](O[C@H]2C[C@@](C)(OC)[C@@H](O)[C@H](C)O2)[C@H](C)[C@@H](O[C@@H]2O[C@H](C)C[C@H](N(C)C)[C@H]2O)[C@](C)(OC)C[C@@H](C)C(=O)[C@H](C)[C@@H](O)[C@]1(C)O
> 256 µg/mL
